Measured relative β-galactosidase activity, inducer Ns of individual entries
System: tetA promoter (PtetA)-lacZ reporter in E. coli KM3
Format: cell-based
PROTOCOL_CONDITIONS: Table 4; nicosulfuron 20 μg/ml (20 ppm); 48 hrs at 30° C.
RECORDED_METRIC: relative β-galactosidase activity, inducer Ns

# MOLECULE, REPORTED_VALUE
rows = [
    ("L1-22: library L1 hit, sulfonylurea-responsive TetR(B) variant, SEQ ID NO: 7 (protein, Sulfornylurea responsive repressor L1-22) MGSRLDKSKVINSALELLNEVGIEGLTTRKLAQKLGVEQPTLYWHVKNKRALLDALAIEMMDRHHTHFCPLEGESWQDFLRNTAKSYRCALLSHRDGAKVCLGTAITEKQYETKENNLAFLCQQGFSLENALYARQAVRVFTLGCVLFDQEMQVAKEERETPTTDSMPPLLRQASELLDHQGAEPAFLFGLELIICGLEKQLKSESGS", 0.2),
    ("L1-2: library L1 hit, sulfonylurea-responsive TetR(B) variant, SEQ ID NO: 3 (protein, Sulfonylurea responsive repressor L1-02) MGSRLDKSKVINSALELLNEVGIEGLTTRKLAQKLGVEQPTLYWHVKNKRALLDALAIEMLDRHATHFCPLEGESWQDFLRNNAKSFRCALLSHRDGAKVCLGTAVTEKQYETMENILAFLCQQGFSLENALYARRAVIAFTLGCVLWDQEYQVAKEERETPTTDSMPPLLRQARELIDHQGAEPAFLFGLELIICGLEKQLKCESGS", 1.3),
    ("L1-9: library L1 hit, sulfonylurea-responsive TetR(B) variant, parent of L2 and L4 (protein, Sulfonylurea responsive repressor L1-09) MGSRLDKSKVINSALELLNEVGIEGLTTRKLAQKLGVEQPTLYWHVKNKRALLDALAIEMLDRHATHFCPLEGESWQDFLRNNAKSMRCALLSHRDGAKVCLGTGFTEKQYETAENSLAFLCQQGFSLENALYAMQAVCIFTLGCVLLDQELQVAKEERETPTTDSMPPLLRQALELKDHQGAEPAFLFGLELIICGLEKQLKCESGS", 0.3),
]
